tested on: NCI-H1993 human lung non-small cell carcinoma cells; assay: CELLTITER-GLO cell viability assay, NCI-H1993 cells (same method); format: cell-based
pIC50: −log10 of the molar value.
Quantity measured: pIC50

Data request: Which pIC50 is listed for "C#C[C@]1(O)CC[C@H]2[C@@H]3CCC4=CC(=O)CC[C@@H]4[C@H]3CC[C@@]21CC" ?
Data returned: ≤ 4.00

====

tested on: NCI-H441 human lung adenocarcinoma cells; experiment: CELLTITER-GLO cell viability assay, NCI-H441 cells (same method); type: cell-based
pIC50: −log10 of the molar value.
Quantity measured: pIC50

Data request: Which pIC50 is listed for "C#C[C@]1(O)CC[C@H]2[C@@H]3CCC4=CC(=O)CC[C@@H]4[C@H]3CC[C@@]21CC" ?
Data returned: ≤ 4.00
